Collected pIC50 values appear next to each entry.
# Tested on: 233499-124-R-J3-PDC complex spheroid viability;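 further: spheroids exposed to the drug combinations for seven days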
# assay protocol: Anticancer human tumor 233499-124-R-J3-PDC patient-derived colon adenocarcinoma cell line growth inhibition [CLK]
# experimental setup: curve of first compound; second compound 0.1 µM
pIC50: −log10 of the molar value.

Worked examples follow.
C=CC(=O)Nc1cc(Nc2nccc(-c3cn(C)c4ccccc34)n2)c(OC)cc1N(C)CCN(C)C + CN1CCN(c2cc(C(=O)Nc3cc4cc(-c5cnn(C)c5)ccc4cn3)ccn2)CC1 | < 6.52
Cn1ncnc1[C@H]1c2n[nH]c(=O)c3cc(F)cc(c23)N[C@@H]1c1ccc(F)cc1 + CNC(=O)c1ccc(Nc2nc(OC3CCCC3)c3c(-c4ccc5nc(C)oc5c4)c[nH]c3n2)c(OC)c1 | < 7.00

We now examine a further compound.
response.value for Cn1ncnc1[C@H]1c2n[nH]c(=O)c3cc(F)cc(c23)N[C@@H]1c1ccc(F)cc1 + CN1CCN(c2cc(C(=O)Nc3cc4cc(-c5cnn(C)c5)ccc4cn3)ccn2)CC1 (field: pIC50) = < 7.00
